- Test system: INS1
- Procedure Details: beta cell apoptosis inhibitors, cytokine rescue, dose response, luminescence, retest (AID 449756);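 also: cell death triggered by IL-1 beta plus TNF-alpha plus IFN-gamma mixture; protective hits raise ATP signal compared with cytokine alone wells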
- Format: functional, cell-based
- Settings: Rattus norvegicus
Calls of active or inactive are those of the source.
Hello, when you answer, please use one of the following outcomes: Y = active, N = inactive

These recorded examples may help you get a feel for the data.
Compound | Label
CCCC(C)C(=O)Nc1nc(C)c(-c2csc(Nc3ccc(Cl)cc3)n2)s1 (configuration not stated) | Y
COc1ccc(/C=C/C(=O)NC(=S)Nc2ccccc2C(=O)NC2CCCCC2)cc1 | Y
O=C(N/N=C/c1sc2ccccc2c1O)c1ccccc1 | Y
COC(=O)c1ccc2[nH]c3cccc(/C(=C/c4ccccc4)c4ccccc4)c3c2c1 | Y
COc1ccc2c(c1)[nH]c1c(N3CCN(Cc4ccc5c(c4)OCO5)CC3)ncnc12 | Y
C=C1C(=O)O[C@@H]2C[C@@H](C)[C@@H]3C=CC(=O)[C@@]3(C)[C@@H](OC(C)=O)[C@H]12 | Y

Fill in: this test's call for O=C(COC(=O)Cn1cnc2ccccc2c1=O)Nc1ccc2c(c1)OCO2 is ___
N

----------
Heads up, these compounds all have IC50 values measured for UniProt P04406.
Sequence (P04406 whole entry): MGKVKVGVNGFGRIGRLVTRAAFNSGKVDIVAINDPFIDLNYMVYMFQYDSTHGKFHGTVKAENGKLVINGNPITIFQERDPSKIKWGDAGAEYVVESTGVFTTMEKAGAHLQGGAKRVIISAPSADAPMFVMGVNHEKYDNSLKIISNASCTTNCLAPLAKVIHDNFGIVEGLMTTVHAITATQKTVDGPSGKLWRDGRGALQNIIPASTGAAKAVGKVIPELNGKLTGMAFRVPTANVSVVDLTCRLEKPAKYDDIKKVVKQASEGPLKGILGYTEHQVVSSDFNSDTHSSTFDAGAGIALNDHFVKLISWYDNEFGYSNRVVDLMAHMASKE
The source made the active and inactive calls.

Item Smiles | Reported Property | Obs Value
O=C1C(Cl)=C(N2CCN(c3ccccc3)CC2)C(=O)N1c1ccc(C(F)(F)F)cc1 | IC50 | > 50 µM (inconclusive)

Any idea what IC50 came out for COc1ccc(Br)cc1S(=O)(=O)Nc1cnc2ccccc2c1 on UniProt P04406?
> 100 µM (not active)

Any idea what IC50 came out for CCCCCc1nnc(NC(=O)Cc2cccs2)s1 on UniProt P04406?
98.6 µM (active)

Any idea what IC50 came out for COc1ccc(Cc2nnc(N3C(=O)[C@H]4CCCC[C@H]4C3=O)[nH]2)cc1 on UniProt P04406?
> 100 µM (not active)

Any idea what IC50 came out for O=c1/c(=C/c2cccc(Br)c2)sc2nc3cc(Br)cnc3n12 on UniProt P04406?
> 100 µM (not active)

----------
Heads up, these molecules all have AC50 values measured for Cytochrome P450 2C9 (Homo sapiens, UniProt P11712).

Recorded results for 8 molecules are shown here.
Molecule | Obs Value
CCCCNC(=O)CCC(=O)Nc1ccc2nc(N3CCOCC3)cc(C)c2c1 | 17.8 µM (inconclusive)
COCCNC(=O)Cn1cnc2ccc(S(=O)(=O)N3CCC(C)CC3)cc2c1=O | 10 µM (inconclusive)
O=C(/C=C\c1ccc2c(c1)OCO2)c1ccc(F)cc1 | 1.58 µM (inconclusive)
NCc1ccccc1.O=C(O)NCc1ccccc1 | 3.98 µM (inconclusive)
CC(=O)OCC(=O)[C@@]1(O)[C@H](C)C[C@@H]2[C@H]3CCC4=CC(=O)C=C[C@]4(C)[C@]3(F)[C@@H](O)C[C@@]21C | 6.31 µM (inconclusive)
Cc1ccc(/N=C/c2nc(/C=C/c3cccc([N+](=O)[O-])c3)oc2O)cc1 | 17.8 µM (inconclusive)
COCCn1c(=O)c(C)nc2cncnc21 | 31.6 µM (inconclusive)
O=C1CCC(c2ccccc2)(c2ccccc2)CC1 | 6.31 µM (inconclusive)

Any idea what AC50 came out for O=C1C2C3C=CC(CC3)C2C(=O)N1/N=C/c1ccccc1O (stereo not drawn) on Cytochrome P450 2C9 (Homo sapiens, UniProt P11712)?
14.1 µM (inconclusive)

Any idea what AC50 came out for CCC1CC2CC(NC(C)=O)C1C2 (stereo not drawn) on Cytochrome P450 2C9 (Homo sapiens, UniProt P11712)?
7.08 µM (inconclusive)

Any idea what AC50 came out for COC(=O)c1cccc(C(=O)Nc2ccc(C)cc2)n1 on Cytochrome P450 2C9 (Homo sapiens, UniProt P11712)?
6.31 µM (inconclusive)

Any idea what AC50 came out for CCOc1ccc(-n2c(N)c(C(=O)NCc3cccnc3)sc2=S)cc1 on Cytochrome P450 2C9 (Homo sapiens, UniProt P11712)?
3.55 µM (inconclusive)

Any idea what AC50 came out for O=C(CCCn1cnc([N+](=O)[O-])n1)Nc1ccc(Cl)c(Cl)c1 on Cytochrome P450 2C9 (Homo sapiens, UniProt P11712)?
15.8 µM (inconclusive)

Any idea what AC50 came out for O=C(CSc1nnc(CNc2ccccc2)o1)N1CCCc2ccccc21 on Cytochrome P450 2C9 (Homo sapiens, UniProt P11712)?
15.8 µM (inconclusive)

Any idea what AC50 came out for CCNc1nnc(-c2ccncc2)s1 on Cytochrome P450 2C9 (Homo sapiens, UniProt P11712)?
17.8 µM (inconclusive)

Any idea what AC50 came out for O=P(O)(CP(=O)(c1ccccc1)c1ccccc1)c1ccccc1O on Cytochrome P450 2C9 (Homo sapiens, UniProt P11712)?
0.1 µM (inconclusive)

Any idea what AC50 came out for O=C(NC1CCCCC1)c1ccc(COCC(F)(F)F)o1 on Cytochrome P450 2C9 (Homo sapiens, UniProt P11712)?
15.8 µM (inconclusive)

Any idea what AC50 came out for CCOC(=O)c1c(NC(=O)c2ccc(S(=O)(=O)N3CCOCC3)cc2)sc2c1CCN(C)C2 on Cytochrome P450 2C9 (Homo sapiens, UniProt P11712)?
14.1 µM (inconclusive)
